- target.entity: UniProtKB P37288
- protocol.description: Cellular in vitro assay for determining vasopressin receptor activity, V1a receptor cell line (photoprotein luminescence)
- Type: cell-based
- condition.info: selectivity ratio of the cellular IC50 values
ratio IC50 hV2/hV1a for assorted molecules
Reply with the value as a number alone.

The following molecules have reported results that may help.
>>> result_number("O=C1CCC(CNc2nc(Cn3nc(-c4ccc(Cl)cc4)n(C[C@H](O)C(F)(F)F)c3=O)nn2-c2ccccc2Cl)N1 (single isomer, unassigned) [Example 65]")
10.2
>>> result_number("O=C1NCCC1Nc1nc(Cn2nc(-c3ccc(Cl)cc3)n(C[C@H](O)C(F)(F)F)c2=O)nn1-c1ccccc1Cl (single isomer, unassigned) [Example 17]")
3.8
>>> result_number("O=c1n(Cc2nc(NCC3(O)CCC3)n(-c3ccccc3Cl)n2)nc(-c2ccc(Cl)cc2)n1C[C@H](O)C(F)(F)F")
1.3
>>> result_number("O=c1n(Cc2nc(N3CCNC(C(F)(F)F)C3)n(-c3ccccc3Cl)n2)nc(-c2ccc(Cl)cc2)n1C[C@H](O)C(F)(F)F (single isomer, unassigned) [Example 67]")
19.0
>>> result_number("O=C1CCC(Nc2nc(Cn3nc(-c4ccc(Cl)cc4)n(C[C@H](O)C(F)(F)F)c3=O)nn2-c2ccccc2Cl)CN1 (mixture of isomers) [Example 60]")
12.3

Please find the next molecule below.
Inquiry: Could you share what ratio IC50 hV2/hV1a was measured for COCCN(C)c1nc(Cn2nc(-c3ccc(Cl)cc3)n(C[C@H](O)C(F)(F)F)c2=O)nn1-c1ccccc1Cl , tested on UniProtKB P37288?
Reply text: 16.9

----------
log10(IC50) for assorted compounds
- target.entity: human V2 receptor (Homo sapiens)
- Sequence (P30518 whole entry): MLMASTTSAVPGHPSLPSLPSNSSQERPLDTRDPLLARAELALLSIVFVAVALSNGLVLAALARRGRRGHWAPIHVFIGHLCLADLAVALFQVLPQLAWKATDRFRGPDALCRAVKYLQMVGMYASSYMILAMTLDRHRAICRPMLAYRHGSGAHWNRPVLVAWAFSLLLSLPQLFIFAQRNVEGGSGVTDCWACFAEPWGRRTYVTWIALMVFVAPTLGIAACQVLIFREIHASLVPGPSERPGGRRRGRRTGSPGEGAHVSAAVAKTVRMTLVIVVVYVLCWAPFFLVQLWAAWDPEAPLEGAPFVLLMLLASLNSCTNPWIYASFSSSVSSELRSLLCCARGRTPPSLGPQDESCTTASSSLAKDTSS
- protocol.description: Cellular in vitro assay for determining vasopressin receptor activity, V2 receptor cell line (CRE-luciferase)
- condition.info: CHO cell line transfected with the human V2 receptor; agonist [Arg8]-vasopressin at EC50 concentration; read-out: IC50 hV2
Transform log10 | Measure IC50 | Unit nM

The following compounds have reported results that may help.
>>> result_number("O=c1n(Cc2nc(N3CCOCC3)n(-c3cccc(F)c3)n2)nc(-c2ccc(Cl)cc2)n1C[C@H](O)C(F)(F)F")
1.23
>>> result_number("NC(=O)[C@@H]1CC(F)(F)CN1c1nc(Cn2nc(-c3ccc(Cl)cc3)n(C[C@H](O)C(F)(F)F)c2=O)nn1-c1ccccc1Cl")
1.22
>>> result_number("NC(=O)C1CN(c2nc(Cn3nc(-c4ccc(Cl)cc4)n(C[C@H](O)C(F)(F)F)c3=O)nn2CCC(F)(F)F)C1")
2.56
>>> result_number("CC(C)(N)CNc1nc(Cn2nc(-c3ccc(Cl)cc3)n(C[C@H](O)C(F)(F)F)c2=O)nn1CCC(F)(F)F")
3.44
>>> result_number("O=c1n(Cc2nc(N3CCS(=O)(=O)CC3)n(-c3ccccc3F)n2)nc(-c2ccc(Cl)cc2)n1C[C@H](O)C(F)(F)F")
2.39

Please find the next compound below.
Inquiry: I would be grateful if you could share the reported log10(IC50) for O=C1NCCC1Nc1nc(Cn2nc(-c3ccc(Cl)cc3)n(C[C@H](O)C(F)(F)F)c2=O)nn1-c1ccccc1Cl (single isomer, unassigned) [Example 18] .
Reply text: 0.13

----------
- target.entity: human V1a receptor (Homo sapiens, UniProt P37288)
- Sequence (P37288 whole entry): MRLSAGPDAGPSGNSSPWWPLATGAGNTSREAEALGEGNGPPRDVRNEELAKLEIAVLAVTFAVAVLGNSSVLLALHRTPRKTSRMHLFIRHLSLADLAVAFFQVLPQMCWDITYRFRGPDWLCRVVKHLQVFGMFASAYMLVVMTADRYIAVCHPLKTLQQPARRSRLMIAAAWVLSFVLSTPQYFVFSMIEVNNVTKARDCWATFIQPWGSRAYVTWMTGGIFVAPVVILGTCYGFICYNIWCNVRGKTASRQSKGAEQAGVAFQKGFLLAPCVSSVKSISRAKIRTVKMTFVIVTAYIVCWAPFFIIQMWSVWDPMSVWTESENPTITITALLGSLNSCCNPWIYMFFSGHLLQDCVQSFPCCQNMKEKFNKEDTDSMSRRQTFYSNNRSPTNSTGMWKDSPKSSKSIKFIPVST
- protocol.description: Cellular in vitro assay for determining vasopressin receptor activity, V1a receptor cell line (photoprotein luminescence)
- Type: cell-based
- condition.info: selectivity ratio of the cellular IC50 values
property.measured: ratio IC50 hV2/hV1a
Reply with the value as a number alone.

The following molecules have reported results that may help.
>>> result_number("NC(=O)C1CN(c2nc(Cn3nc(-c4ccc(Cl)cc4)n(C[C@H](O)C(F)(F)F)c3=O)nn2-c2ccccc2Cl)CCN1 (mixture of isomers)")
25.2
>>> result_number("CC(F)(F)CNc1nc(Cn2nc(-c3ccc(Cl)cc3)n(C[C@H](O)C(F)(F)F)c2=O)nn1-c1ccccc1Cl")
1.0

Please find the next molecule below.
Inquiry: I would be grateful if you could share the reported ratio IC50 hV2/hV1a for CCOC(=O)CNc1nc(Cn2nc(-c3ccc(Cl)cc3)n(C[C@H](O)C(F)(F)F)c2=O)nn1-c1cccc(Cl)c1 .
Reply text: 0.4

----------
- target.entity: human V1a receptor (Homo sapiens)
- protocol.description: Cellular in vitro assay for determining vasopressin receptor activity, V1a receptor cell line (photoprotein luminescence)
- Type: cell-based
- condition.info: selectivity ratio of the cellular IC50 values
Respond with condition met for ratio IC50 hV2/hV1a values of 5 and above, condition not met for values below.

Inquiry: Could you verify whether the entry CC1(O)CCN(c2nc(Cn3nc(-c4ccc(Cl)cc4)n(C[C@H](O)C(F)(F)F)c3=O)nn2-c2ccccc2Cl)C1 (single isomer, unassigned) [Example 30] shows ratio IC50 hV2/hV1a of no less than 5?
Reply text: condition met

Inquiry: Could you verify whether the entry CC1(CNc2nc(Cn3nc(-c4ccc(Cl)cc4)n(C[C@H](O)C(F)(F)F)c3=O)nn2-c2ccccc2Cl)COC1 shows ratio IC50 hV2/hV1a of no less than 5?
Reply text: condition not met

----------
- target.entity: human V1a receptor (Homo sapiens)
- protocol.description: Cellular in vitro assay for determining vasopressin receptor activity, V1a receptor cell line (photoprotein luminescence)
- condition.info: CHO cell line transfected with the human V1a receptor; agonist [Arg8]-vasopressin at EC50 concentration; read-out: IC50 hV1a
- Method: B-1. Cellular In Vitro Assay for Determining Vasopressin Receptor Activity The identification of agonists and antagonists of the V1a and V2 vasopressin receptors from humans, rats and dogs as well as the quantification of the activity of the compounds of the invention is carried out using recombinant cell lines. […] The bioluminescence of the cell lines is detected using a suitable luminometer [Milligan G, Marshall F, Rees S, Trends in Pharmacological Sciences 17, 235-237 (1996)]. […]
property.measured: IC50 (nM)
Write the answer as a number in nM, unit excluded.

>>> result_number("CC(C)(N)CNc1nc(Cn2nc(-c3ccc(Cl)cc3)n(C[C@H](O)C(F)(F)F)c2=O)nn1-c1ccccc1")
4.3
>>> result_number("O=c1n(Cc2nc(N3CCOC(C(F)(F)F)C3)n(CCC(F)(F)F)n2)nc(-c2ccc(Cl)cc2)n1C[C@H](O)C(F)(F)F (mixture of isomers) [Example 103]")
30
>>> result_number("O=C1CN(c2nc(Cn3nc(-c4ccc(Cl)cc4)n(C[C@H](O)C(F)(F)F)c3=O)nn2CCC(F)(F)F)CCN1")
114
>>> result_number("CC(F)(F)CNc1nc(Cn2nc(-c3ccc(Cl)cc3)n(C[C@H](O)C(F)(F)F)c2=O)nn1-c1ccccc1Cl")
1.25
>>> result_number("O=c1n(Cc2nc(N3CCCC3)n(-c3cccc(Cl)c3)n2)nc(-c2ccc(Cl)cc2)n1C[C@H](O)C(F)(F)F")
66.5

Please find the next compound below.
Inquiry: Could you share what IC50 was measured for O=c1n(Cc2nc(N3CCS(=O)(=O)CC3)n(-c3ccccc3Cl)n2)nc(-c2ccc(Cl)cc2)n1C[C@H](O)C(F)(F)F , tested on human V1a receptor (Homo sapiens)?
Reply text: 0.39

----------
- target.entity: human V1a receptor (Homo sapiens, UniProt P37288)
- protocol.description: Cellular in vitro assay for determining vasopressin receptor activity, V1a receptor cell line (photoprotein luminescence)
- condition.info: CHO cell line transfected with the human V1a receptor; agonist [Arg8]-vasopressin at EC50 concentration; read-out: IC50 hV1a
pIC50: −log10 of the molar value.
Respond with 1.0 for pIC50 values of 9 and above, 0.0 for values below.

Please review the entries below; each comes with its answer.
>>> assigned_category("O=c1n(Cc2nc(N3CCNC(C(F)(F)F)C3)n(-c3ccccc3Cl)n2)nc(-c2ccc(Cl)cc2)n1C[C@H](O)C(F)(F)F (mixture of isomers) [Example 66]")
1.0
>>> assigned_category("O=c1n(Cc2nc(N3CCC(F)(F)C3)n(-c3ccccc3Cl)n2)nc(-c2ccc(Cl)cc2)n1C[C@H](O)C(F)(F)F [Example 37]")
1.0
>>> assigned_category("C[C@H](O)CNc1nc(Cn2nc(-c3ccc(Cl)cc3)n(C[C@H](O)C(F)(F)F)c2=O)nn1-c1ccccc1Cl [Example 50]")
1.0
>>> assigned_category("CC(=O)NCCNc1nc(Cn2nc(-c3ccc(Cl)cc3)n(C[C@H](O)C(F)(F)F)c2=O)nn1-c1ccccc1Cl [Example 71]")
1.0
>>> assigned_category("O=C1CC[C@@H](CNc2nc(Cn3nc(-c4ccc(Cl)cc4)n(C[C@H](O)C(F)(F)F)c3=O)nn2CCC(F)(F)F)N1 [Example 109]")
0.0

Inquiry: Could you verify whether the entry CCOC(=O)CNc1nc(Cn2nc(-c3ccc(Cl)cc3)n(C[C@H](O)C(F)(F)F)c2=O)nn1-c1cccc(Cl)c1 [Example 115] shows pIC50 of no less than 9?
Reply text: 0.0

Inquiry: Could you verify whether the entry CC(C)(N)CNc1nc(Cn2nc(-c3ccc(Cl)cc3)n(C[C@H](O)C(F)(F)F)c2=O)nn1CCC(F)(F)F [Example 111] shows pIC50 of no less than 9?
Reply text: 0.0

Inquiry: Could you verify whether the entry CC(C)(C)OC(=O)N1CCC(O)(CNc2nc(Cn3nc(-c4ccc(Cl)cc4)n(C[C@H](O)C(F)(F)F)c3=O)nn2-c2ccccc2Cl)CC1 [Example 21] shows pIC50 of no less than 9?
Reply text: 0.0

Inquiry: Could you verify whether the entry O=C1CCC(Nc2nc(Cn3nc(-c4ccc(Cl)cc4)n(C[C@H](O)C(F)(F)F)c3=O)nn2-c2ccccc2Cl)CN1 (mixture of isomers) [Example 60] shows pIC50 of no less than 9?
Reply text: 1.0

Inquiry: Could you verify whether the entry O=c1n(Cc2nc(N3CCS(=O)(=O)CC3)n(-c3ccccc3F)n2)nc(-c2ccc(Cl)cc2)n1C[C@H](O)C(F)(F)F [Example 90] shows pIC50 of no less than 9?
Reply text: 0.0

Inquiry: Could you verify whether the entry O=c1n(Cc2nc(N3CCNC(C(F)(F)F)C3)n(CCC(F)(F)F)n2)nc(-c2ccc(Cl)cc2)n1C[C@H](O)C(F)(F)F (mixture of isomers) [Example 106] shows pIC50 of no less than 9?
Reply text: 0.0
